src = PubChem BioAssay (NCATS)

assay notes: Cell Viability - LYMP2-024 (AID 988);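 note: cells exposed to compound for 24 hr at 37 °C; nearly all actives have a fitted effect of over 60% in size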
condition: LYMP2-024 lymphoblastoid cell viability; series mostly up to 92.2 µM
Source text: NIH Chemical Genomics Center [NCGC] NIH Molecular Libraries Screening Centers Network [MLSCN] National Institutes of Environmental Health Sciences [NIEHS] National Toxicology Program [NTP] We have developed a 1536-well cell-based assay for quantitative high throughput screening (qHTS) against a number of cell lines to determine in vitro cytotoxicity of small molecules. […] 8. Detection; Luminescence; Viewlux plate reader […]
Records with an inconclusive call do not appear. Activity calls are given as the source filed them. Calls come from the whole dose curve; as a rule, active = well fitted cell-killing curve with a large enough effect; inconclusive = small, poorly fitted or top-dose-only effect; inactive = flat fitted curve, though single readings scatter.
// classify into active, inactive

# outcome recorded in this test, key = CCNC(=S)NCC inactive

Called result for OCC(CBr)(CBr)CBr inactive

Returns: the outcome recorded for NC(=O)Nc1nc2ccccc2[nH]1 in this assay. inactive

Any idea what this test logged for O=C(O)c1ccc([N+](=O)[O-])cc1 ? inactive

Lab log entry: CC(=O)c1ccc(Cl)c(Cl)c1Cl — outcome as called in the assay? inactive

Could you check what this test reported for COc1ccc(C(=O)Nc2ccccc2)cc1[N+](=O)[O-] ? inactive

Query: recorded result category for O=C(O)/C=C/c1ccc(/C=C/C(=O)O)cc1 in this test inactive

How was CCCCCCCC/C=C\CCCCCCCC(=O)N(CCO)CCO classified in this test? inactive

How did this test come out for Cc1ccc(O)c(N)c1 ? active

GET /call?item= C=CC1CO1 (configuration not stated) returns the recorded outcome of this test. inactive

Could you kindly confirm the outcome this assay logged for C1CCCNCC1 ? inactive

Tell me the recorded outcome of this test for Oc1cc2c(cc1O)[C@H]1c3ccc(O)c(O)c3OC[C@@]1(O)C2 . active

For Brc1cc(Oc2cc(Br)c(Br)c(Br)c2Br)c(Br)c(Br)c1Br , which call appears in the assay record? inactive

Please share the test call associated with Brc1ccc(-c2ccccc2)cc1 . inactive

Please share the test call associated with C=CC(C)(O)CCCC(C)CCCC(C)CCCC(C)C (configuration not stated) . inactive

Hello, I am checking results. What call was entered for O=C(OCc1ccccc1)c1ccccc1O ? inactive

Returns: the outcome recorded for O=C1OC(=O)c2ccccc21 in this assay. inactive

Returns: the outcome recorded for CC(CCC(=O)O)(c1ccc(O)cc1)c1ccc(O)cc1 in this assay. inactive

Per the records of this test, what outcome belongs to CC(=O)OC1CC(C)OC(C)O1 (configuration not stated) ? inactive

Look up the recorded call for Cc1cc(=O)oc2cc(O)cc(O)c12 in this test. inactive

Which outcome was assigned to COc1ccc(C)cc1N in this test? inactive

Lab log entry: CCCCC(CC)COCCCN (configuration not stated) — outcome as called in the assay? inactive

Hi, sorry to bother you, what did the test record for Cc1c(N)cccc1Cl ? inactive

Outcome? Nc1cc(C(=O)O)c(O)c(S(=O)(=O)O)c1 inactive

How was CC(C)COC(=O)COc1cc(Cl)c(Cl)cc1Cl classified in this test? inactive

What call does the record list for C=C1CC[C@H](O)C/C1=C/C=C1\CCC[C@]2(C)[C@@H]([C@H](C)CCCC(C)C)CC[C@@H]12 ? active

Record lookup: outcome of this test for CCC(Cl)CC(Cl)C(Cl)C(Cl)C(Cl)C(C)Cl (configuration not stated) ? inactive

GET /call?item= Nc1ccccc1O returns the recorded outcome of this test. inactive

Per the records of this test, what outcome belongs to COc1cc(-c2ccc(N=C=O)c(OC)c2)ccc1N=C=O ? inactive

Hi team, can someone confirm the assay call for COc1ccc([N+](=O)[O-])cc1N ? inactive

How did this test come out for Brc1cc(Br)c(Oc2cc(Br)c(Br)cc2Br)cc1Br ? inactive

Write down the call the test reported for this compound. Item: Nc1cnn([C@@H]2O[C@H](CO)[C@@H](O)[C@H]2O)c(=O)n1 inactive

Returns: the outcome recorded for CCCCNCC in this assay. inactive

// param item: c1ccc(SCCSc2ccccc2)cc1 ; yields the recorded call inactive

Just curious, what result did O=C(Cl)c1ccc([N+](=O)[O-])cc1 get here? inactive

Tell me the recorded outcome of this test for CC(C)S . inactive

Recorded call for CC(C)(C)C(=O)C1C(=O)c2ccccc2C1=O ? inactive

Which outcome was entered for the compound C=C(C#N)C(=O)OCC in this test? inactive

# outcome recorded in this test, key = Cc1ccc(N)cc1[N+](=O)[O-] inactive

Entry c1ccncc1 : call = ? inactive

Which outcome was entered for the compound NC(=O)c1ccc([N+](=O)[O-])cc1 in this test? inactive

Test call, this compound: CC(/C=C/C=C(C)/C=C/C(=O)O)=C\C=C\C=C(C)\C=C\C=C(C)\C=C\C(=O)O inactive

Per the records of this test, what outcome belongs to c1ccc(CSCc2ccccc2)cc1 ? inactive

Hello, I am checking results. What call was entered for Cc1ccc(C(=O)O)cc1[N+](=O)[O-] ? inactive

For N=C1C=CC(=C(c2ccc(N)cc2)c2ccc(N)cc2)C=C1 , what call appears in the results of this test? active

Please state the recorded outcome for this compound: CCN(CC)c1ccc2c(C)cc(=O)oc2c1 inactive

I would be grateful if you could indicate the recorded call for CCOc1ccc2nc(N)sc2c1 . inactive

Which outcome did this test record for the compound Oc1ccc2c(c1)OCO2 ? inactive

I'd appreciate the recorded outcome for CCCCCCCCC1CO1 (configuration not stated) from this test. inactive

Assay result, entry O=[N+]([O-])c1cccc(I)c1 — outcome? inactive

Would you mind telling me which call this test gave CCCCOC(=O)COc1ccc(Cl)cc1Cl ? inactive

Hello, I am checking results. What call was entered for S=C(NC1CCCCC1)NC1CCCCC1 ? inactive

Record request — test call for c1cc2c3c(c1)ccc1cccc(c13)C2 inactive

Please share the test call associated with Cc1c2ccccc2c(C)c2c1ccc1ccccc12 . inactive

Given CC1=C(/C=C/C(C)=C/C=C/C(C)=C/C=O)C(C)(C)CCC1 , state the outcome it received in this test. active

Test call, this compound: C/C(Cl)=C/CCl inactive

Record request — test call for C/C=C1/C(=O)C[C@H]2[C@@H]3CCC4=CC(=O)CC[C@]4(C)[C@H]3CC[C@]12C active
